B1: RSAD1 (parent)
chain: YCNFNKYIPRRLEEAAMQKCLVTE

- Variants of: B1
- experiment description: protein stability index of a GFP-peptide fusion (GPS, HEK-293T) (PSI 1-6); higher = more stable;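 further: lentivirally expressed fusions sorted by FACS into six bins by GFP to DsRed ratio, PSI derived from sequencing read proportions per bin multiplied by bin number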
- condition: c terminus: a fixed tail appended
Classification field: enter t for protein stability index values not below 2, f for values below it.

Worked cases, answers included:
biopolymer sequence	class
YCNFNKYIPRRLEEAAMQKCLVLE [T23L]	f
YWNFNKYIPRRLEEAAMQKCLVTE [C2W]	f
YCNFNKYIPCRLEEAAMQKCLVTE [R10C]	t
YCNTNKYIPRRLEEAAMQKCLVTE [F4T]	t

**Q:** Can YCNFNKNIPRRLEEAAMQKCLVTE [Y7N] be said to have protein stability index at or above 2?
**A:** t

**Q:** Can YCNFNKYIPRRLEEAAPQKCLVTE [M17P] be said to have protein stability index at or above 2?
**A:** f
